Tested on: SF-539 CNS
Assay: NCI-60 one-dose screen, 48 h (100 = growth as untreated, 0 = no growth, -100 = all killed)
Conditions: 10 µM unless noted
Procedure: Cells are grown in 96 well plates and exposed to the test compound for 48 hours. Compounds are tested at a single concentration, which is 10^-5 M for most compounds. The reported endpoint is percent growth (GI% or GIPRCNT), where numbers from 0 - 100% represent growth inhibition, and numbers from -100% - 0 represent cell death. For example, a value of 40 represents 60% growth inhibition. A value of 0 means no net growth occurred over the course of the experiment. […]
Compounds without any hit were thinned out: in the full panel of roughly 83,000, 20% have a hit.
Can you tell me growth for the items I'm about to list?
Express your answer in %, writing the number without its unit.

**Query** API: value(readout=growth, system=SF-539 CNS) for record N=c1ccccn1CCO
**Result** 107

**Query** API: value(readout=growth, system=SF-539 CNS) for record CCOC(=O)c1cnn(-c2ccc(S(N)(=O)=O)cc2)c1N
**Result** 101

**Query** API: value(readout=growth, system=SF-539 CNS) for record COc1ccc(-c2ccccc2)cc1-c1c(Nc2cc(Cl)cc(Cl)c2O)c(=O)c1=O
**Result** 12.7

**Query** API: value(readout=growth, system=SF-539 CNS) for record Cn1cc(-c2csc(-c3cn(CCOC(N)=O)c4ccccc34)n2)c2cccnc21
**Result** 92.7

**Query** API: value(readout=growth, system=SF-539 CNS) for record CC(=O)N1N=C(c2ccc(F)cc2)CC1c1sc(N(C)Cc2ccccc2)nc1Cl (configuration not stated)
**Result** 104

**Query** API: value(readout=growth, system=SF-539 CNS) for record O=C(Nc1ncc(Cc2cccc(C(F)(F)F)c2)s1)c1ccc2c(c1)OCCO2
**Result** -0.654

**Query** API: value(readout=growth, system=SF-539 CNS) for record COc1ccc(-c2ccc(-c3ccc(C(=N)N)cn3)s2)cc1Cl
**Result** -93.5

----------
system: HT29 colon; test: NCI-60 one-dose screen, 48 h (100 = growth as untreated, 0 = no growth, -100 = all killed); settings: 10 µM unless noted
This is part of a sample that, as a whole, favours compounds with a hit. Of some 83,000 tested, about 20% had one in any assay.
REPORTED_ENDPOINT: growth (%)
Express your answer in %, writing the number without its unit.

**Query** Reported growth, compound Cc1ccc(-c2nc(SCC(=O)c3ccc(C#N)cc3)[nH]c(=O)c2C#N)cc1 : ____
**Result** 97.9

**Query** Reported growth, compound O=C(NCc1ccc(Cn2c(=O)sn(-c3ccc(Cl)cc3)c2=O)cc1)OCc1ccc2c(Cl)cc(Cl)c(O)c2n1 : ____
**Result** 111

**Query** Reported growth, compound O=C(Oc1ccc(CO[N+](=O)[O-])cc1)c1ccccc1 : ____
**Result** -60

**Query** Reported growth, compound CC(=O)c1c(C)nc2ccccc2c1/C=C/c1cccc(C)c1 : ____
**Result** 18.5

----------
tested on: MDA-MB-435 melanoma; assay: NCI-60 one-dose screen, 48 h; conditions: 10 µM unless noted
The panel holds about 83,000 compounds, 20% with a hit somewhere; the sample as a whole holds those more often. The source made the active and inactive calls. How the source made its calls: active means growth percent below 10; inactive means the rest.
Tick one outcome: class 1 for active, class 0 for inactive

**Query** Can you look up the reported call for Cc1ccc(/C=C/c2c(C(=O)/C=C/c3ccccc3)c(C)nc3ccccc23)cc1 for me?
**Result** class 1

**Query** Can you look up the reported call for COC1=CC(=O)C(OC)=C(O)C1=O for me?
**Result** class 0

**Query** Can you look up the reported call for CCCCCC#CC1OC23CCCCC2C(C#N)(C(=N)O3)C1(C#N)C#N (stereo not given) for me?
**Result** class 0

**Query** Can you look up the reported call for N=c1c2c(-c3ccccc3)c(-c3ccccc3)oc2ncn1NC(=O)c1cccnc1 for me?
**Result** class 0

**Query** Can you look up the reported call for COc1cc(Cl)cc(-c2nn(C(=O)NS(=O)(=O)c3ccc(Cl)cc3)cc2-c2ccncc2)c1 for me?
**Result** class 0

**Query** Can you look up the reported call for C#CCOCC1CN(C)C(=O)O1 (stereo not given) for me?
**Result** class 0

**Query** Can you look up the reported call for COC1=CC(c2ccc[nH]2)=N/C1=C\c1[nH]c(C)c(C(=O)Oc2ccccc2)c1C for me?
**Result** class 1

**Query** Can you look up the reported call for CC1(Cc2ccccc2)CC2=C(C(=O)O1)C(c1ccccc1)NC(=O)N2 (stereo not given) for me?
**Result** class 0

**Query** Can you look up the reported call for COc1ccc(Nc2ncnc3ccc(-c4cncc(NS(C)(=O)=O)c4)cc23)cc1Cl for me?
**Result** class 0

**Query** Can you look up the reported call for COc1ccc(/C=C(\C#N)c2cc3ccccc3[nH]2)cc1 for me?
**Result** class 1

**Query** Can you look up the reported call for OB(O)c1ccsc1-c1nc2ccc3[nH]ncc3c2c2c1CCCC2 for me?
**Result** class 0

**Query** Can you look up the reported call for Cc1ccc(-c2nc3nc(-c4ccc(F)cc4)nc(N4CCCNCC4)c3o2)cc1 for me?
**Result** class 1

**Query** Can you look up the reported call for Clc1cccc(Nc2ncnc3ccc(-c4cncc(-n5cnnn5)c4)cc23)c1 for me?
**Result** class 0

**Query** Can you look up the reported call for NC(=O)c1c(NC(=O)/C=C/c2cccs2)sc2c1CCC(=O)C2 for me?
**Result** class 0

**Query** Can you look up the reported call for Nc1n[nH]c2cccc(C#Cc3cccc(NC(=O)c4ccc(N5CCOCC5)c(C(F)(F)F)c4)c3)c12 for me?
**Result** class 0

**Query** Can you look up the reported call for O=C(CCCOc1ccc(Br)cc1)Nc1ncc(Cc2ccc(F)cc2)s1 for me?
**Result** class 1

**Query** Can you look up the reported call for Fc1ccccc1-c1cnn2cc(-c3ccccc3)cnc12 for me?
**Result** class 0

**Query** Can you look up the reported call for CCNC(=O)Nc1ncccc1OCc1ccc(F)cc1 for me?
**Result** class 0

**Query** Can you look up the reported call for Cc1ccc(NC(=O)c2sc3nc(C)c(C(=O)c4ccccc4)cc3c2N)cc1 for me?
**Result** class 0

**Query** Can you look up the reported call for O=c1oc2c(Br)cc(Br)cc2cc1-c1cc(-c2ccc(-c3cc(-c4cc5cc(Br)cc(Br)c5oc4=O)nc(-c4cc5cc(Br)cc(Br)c5oc4=O)c3)cc2)cc(-c2cc3cc(Br)cc(Br)c3oc2=O)n1 for me?
**Result** class 0

**Query** Can you look up the reported call for Cc1nn(-c2nc(-c3cc4ccccc4oc3=O)cs2)c(C)c1N=Nc1ccccc1 for me?
**Result** class 0

**Query** Can you look up the reported call for COc1cc(CNC(=O)CCCC/C=C/C(C)C)ccc1OCc1cn(-c2ccc([N+](=O)[O-])cc2)nn1 for me?
**Result** class 0

**Query** Can you look up the reported call for O=C1OCC2=C1C(c1cccc(C(F)(F)F)c1)c1cc3c(cc1N2CCO)OCCO3 (stereo not given) for me?
**Result** class 1

**Query** Can you look up the reported call for CCNC(=O)Oc1ccc(/C(=C(/C)Cc2ccc(OC)cc2)c2ccc(OCCN(CC)CC)cc2)cc1 for me?
**Result** class 0

**Query** Can you look up the reported call for Cc1nc2sc(C(=O)Nc3cccc(Cl)c3C)c(N)c2cc1C(O)c1ccccc1 (stereo not given) for me?
**Result** class 1

**Query** Can you look up the reported call for N#C/C(=C\c1ccc(Br)cc1)n1nnc2c(F)cccc21 for me?
**Result** class 1

**Query** Can you look up the reported call for CCCNNC(=O)/C=C/c1ccc(CNCCc2c(C)[nH]c3ccccc23)cc1 for me?
**Result** class 0

**Query** Can you look up the reported call for CCN(c1cc(-c2ccc(CN3CCC(/C=C/S(=O)(=O)c4ccccc4)CC3)cc2)cc(C(=O)NCc2c(C)cc(C)[nH]c2=O)c1C)C1CCOCC1 for me?
**Result** class 0

**Query** Can you look up the reported call for CCCCCCCCCCCCCCCC[N+](C)(C)CCN(Cc1ccc(OC)cc1)c1ncccn1 for me?
**Result** class 1

**Query** Can you look up the reported call for CN(C)C1CCN(C(=O)c2ccc(NC(=O)Nc3ccc(-c4nc(N5CCOCC5)c5cccn5n4)cc3)cc2)CC1 for me?
**Result** class 1
